Assay: Peptide stability in simulated intestinal fluid (SIF)
Assay type: in vitro ADME
Conditions: pig, simulated intestinal fluid; SIF, 1 h, pH 6.8, pancreatin, 37° C., 10 μM
Experimental: SGF and SIF were prepared based on the United States Pharmacopeia specifications (Test Solutions, United States Pharmacopeia 35, NF 30, 2012). SGF was prepared by dissolving sodium chloride (0.2 g) in 50 mL of water. A volume of 0.7 mL of 10 M HCl was added to adjust the pH of the solution to 1.2 and the volume made up to 100 mL with water. 64 mg porcine pepsin (P7125, Sigma Aldrich) was gently dissolved into 20 mL preheated (37° C.) solution (3.2 g/L) immediately prior to the incubation. […]
*1 amine or outer side, *2 acyl side, *3 side chain or, on linkers, in order; H or OH if unused. Where a SMILES comes first, the peptide text is derived from it. Bridges are numbered along the chain shown (N, C = ends). [ ]: non-standard residue; d: D form. 2Nal = N[C@@H](Cc1ccc2ccccc2c1)C(=O)O; AEF = NCCOc1ccc(C[C@H](N)C(=O)O)cc1; X1 = O=C(Cc1ccc(CN[*:1])cc1)[*:2]; 3Pal = N[C@@H](Cc1cccnc1)C(=O)O; αMeL = CC(C)C[C@](C)(N)C(=O)O; Dab = NCC[C@H](N)C(=O)O
quantity_name: remaining at 1 h, 10 µM (%)
Respond numerically; units are % and should not be typed.

// recorded remaining at 1 h, 10 µM for CNC(=O)[C@H](Cc1cccnc1)NC(=O)[C@H](CCC(N)=O)NC(=O)[C@@H]1CCC(=O)NCc2ccc(cc2)CC(=O)N[C@@H](CO)C(=O)N[C@H]2CCC(=O)NCC[C@H](NC(=O)[C@H](CCC(N)=O)NC(=O)[C@H](Cc3c[nH]c4ccccc34)NC2=O)C(=O)N[C@@H](Cc2ccc(OCCN)cc2)C(=O)N[C@@H](Cc2ccc3ccccc3c2)C(=O)N[C@@](C)(CC(C)C)C(=O)N1 [Compound 33] ([X1]SEWQ[Dab][AEF][2Nal][αMeL]EQ[3Pal]-NHMe; lactam 3-6, N-10) : 92

// recorded remaining at 1 h, 10 µM for `CNC(=O)[C@H](Cc1cccnc1)NC(=O)[C@H](CCO)NC(=O)[C@@H]1CCC(=O)NCc2ccc(cc2)CC(=O)N[C@@H](CO)C(=O)N[C@H]2CCC(=O)NCC[C@H](NC(=O)[C@H](CCC(N)=O)NC(=O)[C@H](Cc3c[nH]c4ccccc34)NC2=O)C(=O)N[C@@H](Cc2ccc(OCCN)cc2)C(=O)N[C@@H](Cc2ccc3ccccc3c2)C(=O)N[C@@](C)(CC(C)C)C(=O)N1` : 99

// recorded remaining at 1 h, 10 µM for CC(C)C[C@@H]1NC(=O)[C@H](Cc2c[nH]c3ccccc23)NC(=O)[C@H](Cc2c[nH]c3ccccc23)NC(=O)[C@@H]2CSCC(=O)CSC[C@H](NC(=O)[C@H]([C@@H](C)O)NC(=O)[C@@H](NC(=O)CN)CSCC(=O)CSC[C@@H](C(=O)N[C@@H](CO)C(N)=O)NC1=O)C(=O)N[C@@H](Cc1c[nH]c3ccccc13)C(=O)N[C@@H](CCC(=O)O)C(=O)N2 (single isomer, unassigned) [I1 (isomer 3), H-GC(1a)TC(2a)WEC(2a)WWLC(1a)S-[NH2], reference compound] : 0

// provenance: patent US20260327264A1
